Catalogue of binders with associated pKd
Test target: T1, truncated hTfR1 of SEQ ID NO:122 (human, UniProt P02786 122-760)
T1 construct: also called human TfR1; Human TfR1
T1 sequence (P02786 other isoform, or with tags, fused parts or gaps limits assumed): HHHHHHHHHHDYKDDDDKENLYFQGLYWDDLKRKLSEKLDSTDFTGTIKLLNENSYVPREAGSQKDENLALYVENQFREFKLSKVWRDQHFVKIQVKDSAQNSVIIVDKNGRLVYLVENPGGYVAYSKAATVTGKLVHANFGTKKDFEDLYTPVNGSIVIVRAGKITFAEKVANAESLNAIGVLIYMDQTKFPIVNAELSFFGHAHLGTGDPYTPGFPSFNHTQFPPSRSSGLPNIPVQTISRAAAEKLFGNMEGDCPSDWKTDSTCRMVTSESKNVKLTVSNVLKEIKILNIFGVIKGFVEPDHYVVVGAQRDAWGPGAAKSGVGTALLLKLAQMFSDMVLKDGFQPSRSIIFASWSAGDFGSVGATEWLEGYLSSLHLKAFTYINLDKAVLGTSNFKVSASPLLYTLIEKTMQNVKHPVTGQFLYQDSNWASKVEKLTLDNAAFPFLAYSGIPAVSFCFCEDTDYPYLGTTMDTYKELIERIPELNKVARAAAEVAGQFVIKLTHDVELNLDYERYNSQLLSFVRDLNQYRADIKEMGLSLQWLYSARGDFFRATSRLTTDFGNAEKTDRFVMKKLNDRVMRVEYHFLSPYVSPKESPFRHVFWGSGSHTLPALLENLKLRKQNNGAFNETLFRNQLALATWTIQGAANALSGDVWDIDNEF
Test method notes: SPR, FLAG-captured TfR1, scFv injected, 1:1 fit
pKd: −log10 of the molar value.

Binder	pKd
h26D3 HC6 DS V11R T120K (scFv, also called h26D3 DS V11R T120K) scFv: HHHHHHGGGGSGGGGSGGGGSGGGGSDIQMTQSPSSVSASVGDRVTITCKSSQSLLYSTNQKNYLAWYQQKPGKAPKLLIYWASTRESGVPSRFSGSGSGTDFTLTISSLQPEDFATYYCQQYFIYPRTFGCGTKVEIKGGGGSGGGGSGGGGSGGGGSEVQLVQSGAERKKPGSSVKVSCKASGYIFTDYNMDWVRQAPGQCLEWIGDINPDADTTSYNEKFKGRATLTVDKSTSTAYMELSSLRSEDTAVYYCARGGYSGSSYYHPMDYWGQGTLVKVSS	7.22
h26D3 HC6 DS S16E L118S (scFv, also called h26D3 DS S16E L118S) scFv: HHHHHHGGGGSGGGGSGGGGSGGGGSDIQMTQSPSSVSASVGDRVTITCKSSQSLLYSTNQKNYLAWYQQKPGKAPKLLIYWASTRESGVPSRFSGSGSGTDFTLTISSLQPEDFATYYCQQYFIYPRTFGCGTKVEIKGGGGSGGGGSGGGGSGGGGSEVQLVQSGAEVKKPGESVKVSCKASGYIFTDYNMDWVRQAPGQCLEWIGDINPDADTTSYNEKFKGRATLTVDKSTSTAYMELSSLRSEDTAVYYCARGGYSGSSYYHPMDYWGQGTSVTVSS	7.17
h26D3 HC6 DS T120K (scFv, also called h26D3 DS T120K) scFv: HHHHHHGGGGSGGGGSGGGGSGGGGSDIQMTQSPSSVSASVGDRVTITCKSSQSLLYSTNQKNYLAWYQQKPGKAPKLLIYWASTRESGVPSRFSGSGSGTDFTLTISSLQPEDFATYYCQQYFIYPRTFGCGTKVEIKGGGGSGGGGSGGGGSGGGGSEVQLVQSGAEVKKPGSSVKVSCKASGYIFTDYNMDWVRQAPGQCLEWIGDINPDADTTSYNEKFKGRATLTVDKSTSTAYMELSSLRSEDTAVYYCARGGYSGSSYYHPMDYWGQGTLVKVSS	7.23
h26D3 HC6 DS L118S (scFv, also called h26D3 DS L118S) scFv: HHHHHHGGGGSGGGGSGGGGSGGGGSDIQMTQSPSSVSASVGDRVTITCKSSQSLLYSTNQKNYLAWYQQKPGKAPKLLIYWASTRESGVPSRFSGSGSGTDFTLTISSLQPEDFATYYCQQYFIYPRTFGCGTKVEIKGGGGSGGGGSGGGGSGGGGSEVQLVQSGAEVKKPGSSVKVSCKASGYIFTDYNMDWVRQAPGQCLEWIGDINPDADTTSYNEKFKGRATLTVDKSTSTAYMELSSLRSEDTAVYYCARGGYSGSSYYHPMDYWGQGTSVTVSS	7.22
h26D3 HC6 DS S16E (scFv, also called h26D3 DS S16E) scFv: HHHHHHGGGGSGGGGSGGGGSGGGGSDIQMTQSPSSVSASVGDRVTITCKSSQSLLYSTNQKNYLAWYQQKPGKAPKLLIYWASTRESGVPSRFSGSGSGTDFTLTISSLQPEDFATYYCQQYFIYPRTFGCGTKVEIKGGGGSGGGGSGGGGSGGGGSEVQLVQSGAEVKKPGESVKVSCKASGYIFTDYNMDWVRQAPGQCLEWIGDINPDADTTSYNEKFKGRATLTVDKSTSTAYMELSSLRSEDTAVYYCARGGYSGSSYYHPMDYWGQGTLVTVSS	7.16

Source listed as patent US20250388664A1.
